- Target of assay: human recombinant KDM1A/CoREST protein (Homo sapiens)
- Construct: made in house; host or cells: E. coli
- Assay text: Assay of enzyme inhibition of KDM1A (LSD1), TR-FRET
- Format: biochemical
- Recorded conditions: 0.25 nM KDM1A/CoREST, 50 nM H3K4 monomethylated peptide, 20 min at RT; read-out: IC50, KDM1A (LSD1) enzyme inhibition
Counter-ions that a name gives are not always drawn.
Property measured: IC50

Recorded IC50, per entry:
>  <Molecule>
CCn1c(C(=O)c2cn(CCCc3ccc(OC[C@@H]4CCNC4)cc3)c3ccccc23)cc2sccc21 (stereo in doubt) [Compound 28, hydrochloride]

>  <IC50>
< 0.5 µM

$$$$
>  <Molecule>
Cn1c(C(=O)c2cn(CCOc3ccc(OC[C@@H]4CCNC4)cc3)c3ccccc23)cc2sccc21 (stereo in doubt) [Compound 15, hydrochloride]

>  <IC50>
< 0.5 µM

$$$$

Q) Quick one: IC50 of `Cn1c(C(=O)c2c[nH]c3ccccc23)cc2sccc21` ?
A) < 50 µM

Q) Moving on to Cn1c(C(=O)c2cn(CCOc3ccc(OCC4CCNCC4)cc3)c3ccccc23)cc2sccc21 [Compound 19, hydrochloride]
A) < 0.5 µM

Q) Moving on to `Cc1ccc2[nH]cc(C(=O)c3cc4sccc4n3C)c2c1`
A) < 50 µM

Q) Moving on to Cn1c(C(=O)c2cn(CCOc3ccccc3OCC3CCNC3)c3ccccc23)cc2sccc21 (stereo not shown) [Compound 11, hydrochloride]
A) < 5 µM

Q) Moving on to CCn1c(C(=O)c2cn(CCCc3ccc(OC4CCNCC4)cc3)c3ccccc23)cc2sccc21 [Compound 27, hydrochloride]
A) < 0.5 µM

Q) Moving on to Cn1c(C(=O)c2cn(CCOc3cccc(O[C@@H]4CCCNCC4)c3)c3ccccc23)cc2sccc21 (stereo in doubt) [Compound 20, hydrochloride]
A) < 0.5 µM

Q) Moving on to `Cn1c(C(=O)c2cn(CCCc3ccc(OC4CCNCC4)cc3)c3ccccc23)cc2ccsc21`
A) < 0.5 µM

Q) Moving on to `CCn1c(C(=O)c2c[nH]c3ccccc23)cc2sccc21`
A) < 50 µM

These measurements were taken from patent US10980777B2.
